Origin of measurements: patent US8802849B2

Target: UniProt O75116
Assay: ROCK2 kinase assay
Type: biochemical
Conditions: 10 μM compound; read-out: ROCK2 percent of inhibition
inhibition at 10 µM: recorded values
State the answer as a number, implicitly in %.

1. Brc1cccc(Nc2ncnc3sc4ccccc4c23)c1 :: 2
2. Oc1cccc(Nc2nc(C3CC3)nc3sc4c(c23)CCCC4)c1 :: 6
3. Nc1cccc(Nc2ncnc3sc4c(c23)CCCC4)c1 :: 7
4. Fc1ccc(Nc2ncnc3sc4c(c23)CCCC4)cc1 :: 6
5. Clc1cccc(Nc2nc(C3CC3)nc3sc4ccccc4c23)c1 :: 2
6. Fc1ccccc1Nc1ncnc2sc3c(c12)CCCC3 :: 3

query: GET /values?readout=inhibition at 10 µM&item= N#Cc1cccc(Nc2ncnc3sc4c(c23)CCCC4)c1
result: -2

query: GET /values?readout=inhibition at 10 µM&item= Fc1cccc(Nc2ncnc3sc4c(c23)CCCC4)c1
result: 6

query: GET /values?readout=inhibition at 10 µM&item= Oc1cccc(Nc2nc(C3CC3)nc3sc4ccccc4c23)c1
result: 7

query: GET /values?readout=inhibition at 10 µM&item= Nc1cccc(Nc2nc(C3CC3)nc3sc4c(c23)CCCC4)c1
result: 5

----------
Biological target: EGFR (Homo sapiens)
Sequence (P00533 25-1210): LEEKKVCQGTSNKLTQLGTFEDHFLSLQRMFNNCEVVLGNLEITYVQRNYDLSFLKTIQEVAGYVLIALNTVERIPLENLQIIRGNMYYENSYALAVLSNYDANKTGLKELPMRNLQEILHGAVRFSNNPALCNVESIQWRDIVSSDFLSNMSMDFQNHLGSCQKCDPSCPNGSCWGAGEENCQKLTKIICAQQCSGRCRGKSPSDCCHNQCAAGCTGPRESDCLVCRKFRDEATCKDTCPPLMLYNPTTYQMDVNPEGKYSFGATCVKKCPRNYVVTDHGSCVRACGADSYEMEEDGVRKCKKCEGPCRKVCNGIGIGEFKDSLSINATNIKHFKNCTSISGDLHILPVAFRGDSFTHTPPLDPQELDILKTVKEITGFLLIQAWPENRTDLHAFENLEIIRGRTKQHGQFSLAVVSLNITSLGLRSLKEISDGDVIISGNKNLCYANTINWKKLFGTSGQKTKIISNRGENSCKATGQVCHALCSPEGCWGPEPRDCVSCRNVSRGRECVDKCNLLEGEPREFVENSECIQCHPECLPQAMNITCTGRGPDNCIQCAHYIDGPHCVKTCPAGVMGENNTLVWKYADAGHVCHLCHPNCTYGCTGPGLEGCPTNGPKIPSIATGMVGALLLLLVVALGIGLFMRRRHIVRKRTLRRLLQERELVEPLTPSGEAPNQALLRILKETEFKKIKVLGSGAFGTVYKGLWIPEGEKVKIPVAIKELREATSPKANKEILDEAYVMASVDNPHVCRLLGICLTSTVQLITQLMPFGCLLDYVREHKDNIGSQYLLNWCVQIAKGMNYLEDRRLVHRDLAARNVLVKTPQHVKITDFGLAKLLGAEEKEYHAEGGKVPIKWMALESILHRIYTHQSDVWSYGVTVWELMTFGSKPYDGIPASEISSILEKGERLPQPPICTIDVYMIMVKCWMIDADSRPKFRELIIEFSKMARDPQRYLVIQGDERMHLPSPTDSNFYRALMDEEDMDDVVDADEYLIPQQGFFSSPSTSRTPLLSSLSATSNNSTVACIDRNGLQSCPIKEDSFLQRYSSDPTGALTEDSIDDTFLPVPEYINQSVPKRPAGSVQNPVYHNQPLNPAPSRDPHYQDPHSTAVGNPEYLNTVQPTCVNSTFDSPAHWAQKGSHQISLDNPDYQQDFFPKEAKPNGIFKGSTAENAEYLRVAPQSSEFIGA
Assay: EGFR kinase assay (33P-ATP filter plate)
Format: biochemical
Conditions: 10 μM compound; read-out: EGFR percent of inhibition
assay-endpoint: inhibition at 10 µM (%)
State the answer as a number, implicitly in %.

// known answers, use as guide
1. Nc1cccc(Nc2ncnc3sc4c(c23)CCCC4)c1 :: 98
2. FC(F)(F)c1cccc(Nc2nc(C3CC3)nc3sc4c(c23)CCCC4)c1 :: 4

Here is another compound to look at.
query: GET /values?readout=inhibition at 10 µM&item= N#Cc1cccc(Nc2nc(C3CC3)nc3sc4c(c23)CCCC4)c1
result: 72

----------
Molecular target: Abl (Homo sapiens, UniProt P00519)
Sequence (P00519 whole entry, species assumed): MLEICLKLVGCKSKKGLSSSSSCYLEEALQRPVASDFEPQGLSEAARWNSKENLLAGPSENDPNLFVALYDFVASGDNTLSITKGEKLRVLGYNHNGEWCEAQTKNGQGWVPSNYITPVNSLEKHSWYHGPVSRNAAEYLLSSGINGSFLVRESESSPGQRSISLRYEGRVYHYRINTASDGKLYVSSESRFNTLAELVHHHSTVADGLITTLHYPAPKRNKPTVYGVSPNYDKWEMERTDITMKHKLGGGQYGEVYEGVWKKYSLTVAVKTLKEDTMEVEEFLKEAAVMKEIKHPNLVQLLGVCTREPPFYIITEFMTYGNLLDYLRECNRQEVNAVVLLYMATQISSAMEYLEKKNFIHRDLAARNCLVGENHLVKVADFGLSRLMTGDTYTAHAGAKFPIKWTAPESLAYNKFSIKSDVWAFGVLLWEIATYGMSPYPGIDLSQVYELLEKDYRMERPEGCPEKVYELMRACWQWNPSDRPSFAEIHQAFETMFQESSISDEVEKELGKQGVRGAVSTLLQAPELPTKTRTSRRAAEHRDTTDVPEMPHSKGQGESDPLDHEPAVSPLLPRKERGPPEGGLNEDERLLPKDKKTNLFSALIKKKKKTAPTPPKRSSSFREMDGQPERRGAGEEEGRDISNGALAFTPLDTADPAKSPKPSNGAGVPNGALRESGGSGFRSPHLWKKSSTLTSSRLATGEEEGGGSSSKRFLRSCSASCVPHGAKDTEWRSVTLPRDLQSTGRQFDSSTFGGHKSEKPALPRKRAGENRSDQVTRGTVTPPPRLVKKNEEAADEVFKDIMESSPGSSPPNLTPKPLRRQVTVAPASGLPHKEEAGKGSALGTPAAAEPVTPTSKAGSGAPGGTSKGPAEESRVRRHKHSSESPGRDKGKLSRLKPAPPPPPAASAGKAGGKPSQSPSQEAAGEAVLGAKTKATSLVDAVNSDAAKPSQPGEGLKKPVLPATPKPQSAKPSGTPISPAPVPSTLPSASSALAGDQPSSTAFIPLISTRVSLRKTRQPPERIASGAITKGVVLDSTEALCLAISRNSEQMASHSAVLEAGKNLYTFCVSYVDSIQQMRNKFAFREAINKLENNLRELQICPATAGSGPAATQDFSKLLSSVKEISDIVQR
Assay: Abl kinase assay
Format: biochemical
Conditions: 10 μM compound; read-out: Abl percent of inhibition
inhibition at 10 µM: recorded values
State the answer as a number, implicitly in %.

1) Clc1cccc(Nc2nc(C3CC3)nc3sc4c(c23)CCCC4)c1 :: -20
2) Brc1cccc(Nc2ncnc3sc4ccccc4c23)c1 :: -10
3) Nc1cccc(Nc2nc(C3CC3)nc3sc4c(c23)CCCC4)c1 :: -13

query: GET /values?readout=inhibition at 10 µM&item= Oc1cccc(Nc2nc(C3CC3)nc3sc4c(c23)CCCC4)c1
result: -2

----------
Biological target: c-Src (Homo sapiens)
Sequence (P12931 whole entry, species assumed): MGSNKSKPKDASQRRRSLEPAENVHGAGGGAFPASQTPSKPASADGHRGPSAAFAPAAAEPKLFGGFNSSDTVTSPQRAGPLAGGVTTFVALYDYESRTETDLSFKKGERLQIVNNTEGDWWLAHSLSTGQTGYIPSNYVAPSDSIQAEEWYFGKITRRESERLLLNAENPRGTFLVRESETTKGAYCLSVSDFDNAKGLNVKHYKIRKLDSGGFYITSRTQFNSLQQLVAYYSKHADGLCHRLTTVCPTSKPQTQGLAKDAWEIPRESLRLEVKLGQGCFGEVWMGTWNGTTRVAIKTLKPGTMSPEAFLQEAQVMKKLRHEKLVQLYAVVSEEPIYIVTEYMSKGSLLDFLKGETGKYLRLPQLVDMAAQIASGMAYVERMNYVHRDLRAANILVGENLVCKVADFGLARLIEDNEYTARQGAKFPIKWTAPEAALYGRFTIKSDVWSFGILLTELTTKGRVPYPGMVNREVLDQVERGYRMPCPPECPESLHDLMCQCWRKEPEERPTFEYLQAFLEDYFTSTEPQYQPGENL
Experiment: c-Src kinase assay
Format: biochemical
Conditions: 10 μM compound; read-out: c-Src percent of inhibition
inhibition at 10 µM: recorded values
State the answer as a number, implicitly in %.

// known answers, use as guide
1) N#Cc1cccc(Nc2nc(C3CC3)nc3sc4c(c23)CCCC4)c1 [Compound 14] :: 5
2) Fc1cccc(Nc2ncnc3sc4c(c23)CCCC4)c1 [Compound 2] :: 6
3) COc1cccc(Nc2nc(C3CC3)nc3sc4c(c23)CCCC4)c1 [Compound 15] :: 5
4) Nc1cccc(Nc2nc(C3CC3)nc3sc4c(c23)CCCC4)c1 [Compound 12] :: 4
5) Fc1ccc(Nc2ncnc3sc4c(c23)CCCC4)cc1 [Compound 6] :: 12
6) Oc1cccc(Nc2nc(C3CC3)nc3sc4ccccc4c23)c1 [Compound 19] :: 11
7) Clc1cccc(Nc2nc(C3CC3)nc3sc4c(c23)CCCC4)c1 [Compound 9] :: 3
8) Brc1cccc(Nc2nc(C3CC3)nc3sc4ccccc4c23)c1 [Compound 18] :: 22
9) Clc1cccc(Nc2nc(C3CC3)nc3sc4ccccc4c23)c1 [Compound 17] :: 1

query: Can you look up inhibition at 10 µM on c-Src (Homo sapiens) for Nc1cccc(Nc2ncnc3sc4c(c23)CCCC4)c1 [Compound 4] ?
result: 24

----------
Biological target: CDK2/CycA (Homo sapiens, UniProt P24941)
Experiment: CDK2/CycA kinase assay
Format: biochemical
Details: 10 μM compound; read-out: CDK2/CycA percent of inhibition
assay-endpoint: inhibition at 10 µM (%)
State the answer as a number, implicitly in %.

// known answers, use as guide
1. Oc1cccc(Nc2nc(C3CC3)nc3sc4c(c23)CCCC4)c1 :: -11
2. Clc1cccc(Nc2nc(C3CC3)nc3sc4c(c23)CCCC4)c1 :: -10
3. N#Cc1cccc(Nc2ncnc3sc4c(c23)CCCC4)c1 :: 9
4. Clc1cccc(Nc2ncnc3sc4ccccc4c23)c1 :: -6
5. N#Cc1cccc(Nc2nc(C3CC3)nc3sc4c(c23)CCCC4)c1 :: -3
6. FC(F)(F)c1cccc(Nc2nc(C3CC3)nc3sc4c(c23)CCCC4)c1 :: -5
7. Fc1cccc(Nc2ncnc3sc4ccccc4c23)c1 :: -10
8. Nc1cccc(Nc2ncnc3sc4c(c23)CCCC4)c1 :: 16

query: GET /values?readout=inhibition at 10 µM&item= Brc1cccc(Nc2ncnc3sc4ccccc4c23)c1
result: 12

query: GET /values?readout=inhibition at 10 µM&item= Fc1cccc(Nc2ncnc3sc4c(c23)CCCC4)c1
result: -1

----------
Target: SRPK1 (Homo sapiens, UniProt Q96SB4)
Assay: SRPK1 kinase assay
Assay type: biochemical
Settings: 10 μM compound; read-out: SRPK1 percent of inhibition
assay-endpoint: inhibition at 10 µM (%)
State the answer as a number, implicitly in %.

// known answers, use as guide
1. Clc1cccc(Nc2ncnc3sc4ccccc4c23)c1 :: 6
2. Fc1cccc(Nc2ncnc3sc4ccccc4c23)c1 :: 8
3. Oc1cccc(Nc2nc(C3CC3)nc3sc4ccccc4c23)c1 :: 3
4. Fc1cccc(Nc2ncnc3sc4c(c23)CCCC4)c1 :: -5
5. Oc1cccc(Nc2nc(C3CC3)nc3sc4c(c23)CCCC4)c1 :: 18
6. Nc1cccc(Nc2nc(C3CC3)nc3sc4c(c23)CCCC4)c1 :: 21

query: GET /values?readout=inhibition at 10 µM&item= N#Cc1cccc(Nc2ncnc3sc4c(c23)CCCC4)c1
result: 7

----------
inhibition at 10 µM: recorded values
Target: SRPK1 (Homo sapiens, UniProt Q96SB4)
Assay: SRPK1 kinase assay
Format: biochemical
Details: 10 μM compound; read-out: SRPK1 percent of inhibition
State the answer as a number, implicitly in %.

// known answers, use as guide
1. Clc1cccc(Nc2nc(C3CC3)nc3sc4ccccc4c23)c1 :: 9
2. Clc1cccc(Nc2nc(C3CC3)nc3sc4c(c23)CCCC4)c1 :: 7
3. COc1cccc(Nc2nc(C3CC3)nc3sc4c(c23)CCCC4)c1 :: 12
4. Fc1ccccc1Nc1ncnc2sc3c(c12)CCCC3 :: 11
5. N#Cc1cccc(Nc2nc(C3CC3)nc3sc4c(c23)CCCC4)c1 :: 11
6. Fc1cccc(Nc2nc(C3CC3)nc3sc4ccccc4c23)c1 :: 10

query: Can you look up inhibition at 10 µM on SRPK1 (Homo sapiens, UniProt Q96SB4) for Fc1ccc(Nc2ncnc3sc4c(c23)CCCC4)cc1 ?
result: 9

query: Can you look up inhibition at 10 µM on SRPK1 (Homo sapiens, UniProt Q96SB4) for O=[N+]([O-])c1cccc(Nc2nc(C3CC3)nc3sc4c(c23)CCCC4)c1 ?
result: 11

query: Can you look up inhibition at 10 µM on SRPK1 (Homo sapiens, UniProt Q96SB4) for COc1cccc(Nc2nc(C3CC3)nc3sc4ccccc4c23)c1 ?
result: 18

----------
Biological target: InsR (Homo sapiens)
Sequence (P06213 28-1382, species assumed): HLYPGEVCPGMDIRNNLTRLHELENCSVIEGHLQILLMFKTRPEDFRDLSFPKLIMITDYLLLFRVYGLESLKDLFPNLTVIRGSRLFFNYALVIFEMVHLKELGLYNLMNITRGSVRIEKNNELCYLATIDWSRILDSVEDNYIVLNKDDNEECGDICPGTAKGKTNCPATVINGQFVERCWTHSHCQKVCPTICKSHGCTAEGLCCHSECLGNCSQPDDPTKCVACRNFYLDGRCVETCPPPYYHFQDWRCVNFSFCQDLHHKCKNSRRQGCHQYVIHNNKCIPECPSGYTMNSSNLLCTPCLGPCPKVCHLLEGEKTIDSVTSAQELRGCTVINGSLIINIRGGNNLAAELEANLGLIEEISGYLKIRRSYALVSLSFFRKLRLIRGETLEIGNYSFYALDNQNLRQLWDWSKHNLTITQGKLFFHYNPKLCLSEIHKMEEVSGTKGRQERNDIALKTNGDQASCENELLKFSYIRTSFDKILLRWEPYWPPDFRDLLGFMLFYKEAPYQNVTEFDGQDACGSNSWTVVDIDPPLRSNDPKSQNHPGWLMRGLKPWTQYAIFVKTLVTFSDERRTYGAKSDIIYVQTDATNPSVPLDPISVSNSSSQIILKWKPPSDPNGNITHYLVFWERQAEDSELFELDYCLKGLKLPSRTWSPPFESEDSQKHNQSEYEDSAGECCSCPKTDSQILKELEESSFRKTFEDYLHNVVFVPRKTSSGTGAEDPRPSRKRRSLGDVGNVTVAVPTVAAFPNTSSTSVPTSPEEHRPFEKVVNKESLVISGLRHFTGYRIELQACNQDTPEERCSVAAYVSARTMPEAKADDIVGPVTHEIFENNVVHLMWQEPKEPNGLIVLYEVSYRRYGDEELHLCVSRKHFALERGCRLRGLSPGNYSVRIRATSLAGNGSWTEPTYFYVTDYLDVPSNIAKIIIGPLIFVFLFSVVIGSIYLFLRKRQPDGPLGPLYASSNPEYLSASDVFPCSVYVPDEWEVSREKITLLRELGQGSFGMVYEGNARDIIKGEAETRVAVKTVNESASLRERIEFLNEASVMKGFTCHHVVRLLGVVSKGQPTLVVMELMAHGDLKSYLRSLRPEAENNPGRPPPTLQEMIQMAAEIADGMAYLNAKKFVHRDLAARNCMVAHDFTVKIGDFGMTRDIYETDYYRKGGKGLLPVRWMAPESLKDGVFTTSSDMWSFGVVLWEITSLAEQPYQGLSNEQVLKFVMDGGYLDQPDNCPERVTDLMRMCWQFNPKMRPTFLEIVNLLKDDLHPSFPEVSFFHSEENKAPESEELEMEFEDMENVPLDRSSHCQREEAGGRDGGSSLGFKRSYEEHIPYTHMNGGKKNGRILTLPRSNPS
Assay: InsR kinase assay
Type: biochemical
Details: 10 μM compound; read-out: InsR percent of inhibition
inhibition at 10 µM: recorded values
State the answer as a number, implicitly in %.

// known answers, use as guide
1. N#Cc1cccc(Nc2ncnc3sc4c(c23)CCCC4)c1 :: -7
2. Brc1cccc(Nc2ncnc3sc4ccccc4c23)c1 :: 4

query: GET /values?readout=inhibition at 10 µM&item= Nc1cccc(Nc2nc(C3CC3)nc3sc4c(c23)CCCC4)c1
result: 22

query: GET /values?readout=inhibition at 10 µM&item= Fc1cccc(Nc2ncnc3sc4c(c23)CCCC4)c1
result: -6

query: GET /values?readout=inhibition at 10 µM&item= Clc1cccc(Nc2nc(C3CC3)nc3sc4ccccc4c23)c1
result: -5

----------
Target: AKT1/PKBa (Homo sapiens)
Sequence (P31749 whole entry): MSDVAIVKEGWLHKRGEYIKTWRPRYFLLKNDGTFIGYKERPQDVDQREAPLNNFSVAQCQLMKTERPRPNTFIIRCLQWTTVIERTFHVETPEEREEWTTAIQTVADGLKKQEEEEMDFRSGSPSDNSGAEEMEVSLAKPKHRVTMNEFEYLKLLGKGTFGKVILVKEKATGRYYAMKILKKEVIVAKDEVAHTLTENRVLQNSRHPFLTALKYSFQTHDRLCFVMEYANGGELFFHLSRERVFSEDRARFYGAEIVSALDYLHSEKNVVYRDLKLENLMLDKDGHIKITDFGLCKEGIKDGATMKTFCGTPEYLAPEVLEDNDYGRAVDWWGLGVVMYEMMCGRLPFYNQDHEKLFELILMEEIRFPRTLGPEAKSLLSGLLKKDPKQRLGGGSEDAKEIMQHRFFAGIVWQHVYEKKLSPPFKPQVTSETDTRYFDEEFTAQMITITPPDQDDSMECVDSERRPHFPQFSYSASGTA
Assay: AKT1/PKBa kinase assay
Assay type: biochemical
Conditions: 10 μM compound; read-out: AKT1/PKBa percent of inhibition
assay-endpoint: inhibition at 10 µM
Quick note: number first, unit second.

// known answers, use as guide
1. Nc1cccc(Nc2ncnc3sc4c(c23)CCCC4)c1 :: 1%
2. Clc1cccc(Nc2ncnc3sc4ccccc4c23)c1 :: -7%
3. O=[N+]([O-])c1cccc(Nc2nc(C3CC3)nc3sc4c(c23)CCCC4)c1 :: -2%

Here is another compound to look at.
query: GET /values?readout=inhibition at 10 µM&item= Brc1cccc(Nc2ncnc3sc4c(c23)CCCC4)c1
result: -27%
